biological target: human AT1R (Homo sapiens (Human)); test: Counterscreen radioligand binding assay, displacement of 125I-[Sar1, Ile8]-Angiotensin II, hAT1R WT; details: 125I-[Sar1, Ile8]-Ang II, compound at 10 μM, semi-quantitative score, read-out: % Displaced radioligand at 10 μM
Sequence (P30556 whole entry): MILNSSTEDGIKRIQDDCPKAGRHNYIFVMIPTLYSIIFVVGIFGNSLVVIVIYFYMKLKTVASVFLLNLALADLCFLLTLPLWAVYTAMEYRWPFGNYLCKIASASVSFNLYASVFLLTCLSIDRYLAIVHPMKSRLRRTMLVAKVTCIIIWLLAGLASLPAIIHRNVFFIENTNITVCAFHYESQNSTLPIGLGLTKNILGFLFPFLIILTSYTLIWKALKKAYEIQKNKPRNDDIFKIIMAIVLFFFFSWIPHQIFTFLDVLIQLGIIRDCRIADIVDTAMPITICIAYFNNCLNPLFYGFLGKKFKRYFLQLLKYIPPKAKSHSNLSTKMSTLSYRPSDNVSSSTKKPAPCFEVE
Recorded inhibition at 10 µM values for a group of molecules are listed next.
reported-endpoint: inhibition at 10 µM

* Cc1cnc(CN2C(C)CN(c3cc(CC(C)C)cc(F)c3-c3nn[nH]n3)CC2C)s1 (stereo not shown) | < 30%
* CC(C)Cc1cc(F)c(-c2nn[nH]n2)c(N2CCN(Cc3nc4ccccc4c(=O)[nH]3)CC2)c1 | < 30%
* CC(C)Cc1ccc(-c2nn[nH]n2)c(N2CCN(C(C)c3cccnn3)CC2)c1 (stereo not shown) | < 30%
* c1ccc2sc(CN3CCN(c4cc(N5CCCCC5)ccc4-c4nn[nH]n4)CC3)nc2c1 | < 30%

###

target: CYP2C19 (Homo sapiens (Human)); test: CYP inhibition, CYP2C19; assay type: in vitro ADME; conditions: test compound at 10 μM, read-out: % Inhibition (PIN) 2C19
Sequence (P33261 whole entry): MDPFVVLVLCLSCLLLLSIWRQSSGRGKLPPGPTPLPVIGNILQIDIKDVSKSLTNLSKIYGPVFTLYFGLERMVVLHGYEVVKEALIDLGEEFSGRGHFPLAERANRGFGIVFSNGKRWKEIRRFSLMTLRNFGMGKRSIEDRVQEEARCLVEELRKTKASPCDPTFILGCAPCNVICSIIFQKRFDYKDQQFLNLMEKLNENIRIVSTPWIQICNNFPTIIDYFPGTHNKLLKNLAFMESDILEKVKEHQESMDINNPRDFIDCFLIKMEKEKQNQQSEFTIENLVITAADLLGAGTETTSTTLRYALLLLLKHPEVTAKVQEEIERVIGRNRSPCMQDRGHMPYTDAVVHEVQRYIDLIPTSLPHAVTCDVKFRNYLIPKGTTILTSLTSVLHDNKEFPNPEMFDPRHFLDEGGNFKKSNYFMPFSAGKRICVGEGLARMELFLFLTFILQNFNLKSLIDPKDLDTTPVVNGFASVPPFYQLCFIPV
The threshold is inclusive: inhibition at 10 µM of exactly 30% counts as class 1; values below receive class 0.

• CC(C)Cc1ccc(-c2nn[nH]n2)c(N2CCN(Cc3ccnn3C)CC2)c1 [Compound A-84] = class 0
• CC(C)Cc1cc(F)c(-c2nn[nH]n2)c(N2CCN(Cc3ccccn3)[C@@H](C)C2)c1 [Compound A-217] = class 1
• CC(C)Cc1cc(F)c(-c2nn[nH]n2)c(N2CCN(Cc3cccnn3)C(C)C2)c1 (centres unmarked) [Compound A-173] = class 0
• CCCCNC(=O)NS(=O)(=O)c1ccc(C(F)(F)F)cc1N1CCN(Cc2nc3ccccc3n2C)CC1 [Compound A-10] = class 1
• CC(C)Cc1ccc(-c2nn[nH]n2)c(N2CCN(Cc3cccnn3)CC2)c1 [Compound A-90] = class 0
• CC(C)Cc1ccc(-c2nn[nH]n2)c(N2CCN(Cc3ncccn3)CC2)c1 [Compound A-88] = class 0
• CC(C)Cc1cc(F)c(-c2nn[nH]n2)c(N2CCN(Cc3cccnn3)[C@@H](C)C2)c1 [Compound A-174] = class 0
• CC(C)Oc1ccc(-c2nn[nH]n2)c(N2CCN(Cc3nc4ccccc4c(=O)[nH]3)CC2)c1 [Compound A-32] = class 1
• Cc1cnc(CN2CCN(c3cc(CC(C)C)cc(F)c3-c3nn[nH]n3)C[C@@H]2C)s1 [Compound A-223] = class 0
• Cc1cc(CN2CCN(c3cc(CC(C)C)ccc3-c3nn[nH]n3)CC2)no1 [Compound A-82] = class 0
• CC(C)Cc1ccc(-c2nn[nH]n2)c(N2CCN(Cc3nc4ccccc4c(=O)[nH]3)CC2)c1 [Compound A-31] = class 1
• CC(C)Cc1ccc(-c2nn[nH]n2)c(N2CCN(Cc3nccn3C)CC2)c1 [Compound A-83] = class 0
• CCC1CN(c2cc(CC(C)C)cc(F)c2-c2nn[nH]n2)CCN1Cc1cccnn1 (centres unmarked) [Compound A-178] = class 0

###

target: UniProtKB P10635; test: CYP inhibition, CYP2D6; format: in vitro ADME; settings: test compound at 10 μM, read-out: % Inhibition (PIN) 2D6
Sequence (P10635 whole entry): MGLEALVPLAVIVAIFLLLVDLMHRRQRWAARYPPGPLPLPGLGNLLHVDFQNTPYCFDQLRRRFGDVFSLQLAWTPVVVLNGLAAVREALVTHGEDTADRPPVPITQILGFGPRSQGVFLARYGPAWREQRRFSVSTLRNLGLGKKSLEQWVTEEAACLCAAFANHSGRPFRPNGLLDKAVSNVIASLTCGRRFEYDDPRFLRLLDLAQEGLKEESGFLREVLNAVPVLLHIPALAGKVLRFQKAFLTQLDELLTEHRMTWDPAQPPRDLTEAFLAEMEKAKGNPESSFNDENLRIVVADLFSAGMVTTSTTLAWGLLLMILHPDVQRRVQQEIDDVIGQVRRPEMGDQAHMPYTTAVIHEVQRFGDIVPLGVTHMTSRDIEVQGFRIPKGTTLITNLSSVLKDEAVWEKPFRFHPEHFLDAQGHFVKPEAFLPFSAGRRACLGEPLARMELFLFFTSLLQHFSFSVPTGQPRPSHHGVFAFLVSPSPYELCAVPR
The threshold is inclusive: inhibition at 10 µM of exactly 10% counts as label 1; values below receive label 0.

- CC(C)Cc1cc(F)c(-c2nn[nH]n2)c(N2CCN(Cc3cccnn3)[C@@H](C)C2)c1 [Compound A-174]: label 0
- Cc1cc(CN2CCN(c3cc(CC(C)C)ccc3-c3nn[nH]n3)CC2)no1 [Compound A-82]: label 0
- CCCCNC(=O)NS(=O)(=O)c1ccc(C(F)(F)F)cc1N1CCN(Cc2nc3ccccc3n2C)CC1 [Compound A-10]: label 1
- CCC1CN(c2cc(CC(C)C)cc(F)c2-c2nn[nH]n2)CCN1Cc1cccnn1 (centres unmarked) [Compound A-178]: label 1
- CC(C)Cc1ccc(-c2nn[nH]n2)c(N2CCN(Cc3ncccn3)CC2)c1 [Compound A-88]: label 0
- CC(C)Oc1ccc(-c2nn[nH]n2)c(N2CCN(Cc3nc4ccccc4n3C)CC2)c1 [Compound A-24]: label 0
- CC(C)Cc1ccc(-c2nn[nH]n2)c(N2CCN(Cc3ccnn3C)CC2)c1 [Compound A-84]: label 0
- CC(C)Cc1cc(F)c(-c2nn[nH]n2)c(N2CCN(Cc3cccnn3)C(C)C2)c1 (centres unmarked) [Compound A-173]: label 1
- Cc1cnc(CN2CCN(c3cc(CC(C)C)cc(F)c3-c3nn[nH]n3)C[C@@H]2C)s1 [Compound A-223]: label 1
- CC(C)Cc1ccc(-c2nn[nH]n2)c(N2CCN(Cc3nccn3C)CC2)c1 [Compound A-83]: label 0
- CC(C)Oc1ccc(-c2nn[nH]n2)c(N2CCN(Cc3nc4ccccc4c(=O)[nH]3)CC2)c1 [Compound A-32]: label 1
- CC(C)Cc1ccc(-c2nn[nH]n2)c(N2CCN(Cc3cccnn3)CC2)c1 [Compound A-90]: label 0
- CC(C)Cc1ccc(-c2nn[nH]n2)c(N2CCN(Cc3nc4ccccc4c(=O)[nH]3)CC2)c1 [Compound A-31]: label 1
- CC(C)Cc1cc(F)c(-c2nn[nH]n2)c(N2CCN(Cc3ccccn3)[C@@H](C)C2)c1 [Compound A-217]: label 1

###

assay: Caco-2 permeability assay; format: in vitro ADME; settings: human, Caco-2, pH 7.4
Recorded efflux ratio at 90 min, 10 µM values for a group of molecules are listed next.
reported-endpoint: efflux ratio at 90 min, 10 µM

• CC(C)Cc1cc(F)c(-c2nn[nH]n2)c(N2CCN(Cc3cccnn3)[C@@H](C)C2)c1 [Compound A-174] = 16
• CCC1CN(c2cc(CC(C)C)cc(F)c2-c2nn[nH]n2)CCN1Cc1cccnn1 (stereo not drawn) [Compound A-178] = 7.2
• CCc1cc(CC(C)C)cc(N2CCN(Cc3cccnn3)CC2)c1-c1nn[nH]n1 [Compound A-168] = 11.3

###

test: Caco-2 permeability assay; assay type: in vitro ADME; conditions: human, pH 7.4; Caco-2, AB
reported-endpoint: Papp A→B at 90 min, 10 µM (×10⁻⁶ cm/s)

• CC(C)Cc1ccc(-c2nn[nH]n2)c(N2CCN(Cc3nc4ccccc4c(=O)[nH]3)CC2)c1 = 2.8
• CCC1CN(c2cc(CC(C)C)cc(F)c2-c2nn[nH]n2)CCN1Cc1cccnn1 (centres unmarked) = 1.2
• CCc1cc(CC(C)C)cc(N2CCN(Cc3cccnn3)CC2)c1-c1nn[nH]n1 = 1.3
• CC(C)Cc1cc(F)c(-c2nn[nH]n2)c(N2CCN(Cc3cccnn3)[C@@H](C)C2)c1 = 0.15

###

Recorded fraction unbound values for a group of compounds are listed next.
Experiment: Plasma protein binding (equilibrium dialysis), rat
Type: in vitro ADME
Details: equilibrium dialysis, read-out: PPB (%), rat (converted)
Experimental: The assay was performed in a multiple-use 96-well dialysis unit (HTD96b dialyzer). Each individual well unit consisted of 2 chambers separated by a vertically aligned dialysis membrane of predetermined pore size (MWCO 12-14 kDa). […] For samples preparation, an aliquot of the content of each chamber had been mixed with the same volume of the blank opposite matrix. […] Supernatants were analyzed using HPLC system coupled with tandem mass spectrometer (API3000 PE Sciex). […]
reported-endpoint: fraction unbound

• CCC1CN(c2cc(CC(C)C)cc(F)c2-c2nn[nH]n2)CCN1Cc1cccnn1 (centres unmarked) [Compound A-178] = 0.12
• CC(C)Cc1cc(F)c(-c2nn[nH]n2)c(N2CC(C)N(Cc3cccnn3)CC2C)c1 (centres unmarked) [Compound A-183] = 0.23
• CC(C)Cc1cc(F)c(-c2nn[nH]n2)c(N2CCN(Cc3cccnn3)C(C)C2)c1 (centres unmarked) [Compound A-173] = 0.19
• CC(C)Cc1ccc(-c2nn[nH]n2)c(N2CCN(Cc3cccnn3)CC2)c1 [Compound A-90] = 0.23
• CC(C)Cc1cc(F)c(-c2nn[nH]n2)c(N2CCN(Cc3ccccn3)[C@@H](C)C2)c1 [Compound A-217] = 0.004
• CC(C)Cc1cc(F)c(-c2nn[nH]n2)c(N2CCN(Cc3cccnn3)[C@@H](C)C2)c1 [Compound A-174] = 0.017
• CCC1CN(Cc2cccnn2)CCN1c1cc(CC(C)C)cc(F)c1-c1nn[nH]n1 (centres unmarked) [Compound A-181] = 0.12

###

molecular target: human AT2R fused to Cb23 (Homo sapiens, UniProt P50052); assay: Radioligand binding assay, displacement of 125I-[Sar1, Ile8]-Angiotensin II, hAT2R Cb23; conditions: displacement of 125I-[Sar1, Ile8]-Angiotensin II, human AT2R fused to Cb23, HEK-293 cell membrane preparations; read-out: Binding affinity on hAT2R_Cb23 IC50
Sequence (P50052 whole entry, looked up, the tested form may be a part): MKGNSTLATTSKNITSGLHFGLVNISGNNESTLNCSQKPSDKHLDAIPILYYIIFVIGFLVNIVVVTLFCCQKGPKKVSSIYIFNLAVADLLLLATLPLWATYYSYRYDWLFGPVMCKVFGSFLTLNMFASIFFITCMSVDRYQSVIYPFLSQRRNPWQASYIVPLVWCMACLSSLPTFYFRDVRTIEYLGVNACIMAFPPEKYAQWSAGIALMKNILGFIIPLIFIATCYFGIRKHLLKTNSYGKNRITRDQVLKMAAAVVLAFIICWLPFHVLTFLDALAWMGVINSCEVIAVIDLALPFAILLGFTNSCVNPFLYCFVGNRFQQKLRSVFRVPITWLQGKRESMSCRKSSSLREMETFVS
Define the label as satisfied when IC50 is strictly less than 1000 nM and as not satisfied in all remaining cases.

* CCc1nc2ccc(N(Cc3cccnc3)C(=O)c3cccs3)cc2c(=O)n1CC1CCN(c2ccccc2-c2nn[nH]n2)CC1 [Compound A-244] | satisfied
* COc1ccnc(CN2CCN(c3cc(CC(C)C)cc(F)c3-c3nn[nH]n3)C[C@@H]2C)c1 [Compound A-227] | satisfied
* CC(C)Cc1ccc(-c2nn[nH]n2)c(N2CCN(Cc3nc4ccccc4s3)CC2)n1 [Compound A-148] | not satisfied
* CCS(=O)(=O)NC(=O)c1ccc(C(C)C)cc1N1CCN(Cc2nc3ccccc3s2)CC1 [Compound A-34] | satisfied
* Cc1cnc(CN2CCN(c3cc(CC(C)C)cnc3-c3nn[nH]n3)CC2)s1 [Compound A-221] | not satisfied
* CC(C)Cc1ccc(-c2nn[nH]n2)c(CN2CCN(Cc3cccnn3)CC2)c1 [Compound A-238] | not satisfied
* COc1ccnc(CN2CCN(c3cc(CC(C)C)cc(F)c3-c3nn[nH]n3)CC2)c1C [Compound A-208] | not satisfied
